biological target: PD-1-Ig binding to PD-L1-TVMV-His (PD-L1-His) (Homo sapiens (Human), UniProt Q9NZQ7); experiment: PD-1/PD-L1 Homogenous Time-Resolved Fluorescence (HTRF) binding assay (PD-1-Ig/PD-L1-His); details: PD-1-Ig (20 nM)/PD-L1-His (10 nM); range classes
Sequence (Q9NZQ7 other isoform, or with tags, fused parts or gaps): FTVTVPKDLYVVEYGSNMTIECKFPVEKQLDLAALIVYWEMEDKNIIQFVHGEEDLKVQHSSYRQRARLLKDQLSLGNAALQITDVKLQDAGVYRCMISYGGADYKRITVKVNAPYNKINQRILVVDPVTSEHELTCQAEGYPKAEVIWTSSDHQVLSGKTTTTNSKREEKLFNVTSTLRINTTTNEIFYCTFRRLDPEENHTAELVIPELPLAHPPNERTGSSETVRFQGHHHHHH
pIC50: −log10 of the molar value. Where a SMILES comes first, the peptide text is derived from it. Bridges are numbered along the chain shown (N, C = ends). [ ]: non-standard residue; d: D form. NMeNle = CCCC[C@H](NC)C(=O)O; NMeA = CN[C@@H](C)C(=O)O; Sar = CNCC(=O)O
pIC50 values, listed per item

Solved cases (3 shown):
CCCC[C@H]1C(=O)N(C)[C@@H](CCCC)C(=O)N[C@H]2CCC(=O)NCCCC[C@H](NC(=O)[C@H](Cc3c[nH]c4ccccc34)NC(=O)CN(C)C(=O)[C@H](CC(C)C)NC(=O)[C@H](Cc3c[nH]cn3)NC(=O)[C@@H]3CCCN3C(=O)[C@H](CC(N)=O)NC(=O)[C@H](C)N(C)C(=O)[C@H](Cc3ccccc3)NC(=O)CSC[C@@H](C(=O)NCC(N)=O)NC2=O)C(=O)N[C@@H](Cc2c[nH]c3ccccc23)C(=O)N1C [Example 5001] ({CH2CO}-F[NMeA]NPHL[Sar]WKW[NMeNle][NMeNle]ECG-NH2; lactam 9-13; thioether N-14) = 8.00 to 8.52
CCCC[C@H]1C(=O)N(C)[C@@H](CCCC)C(=O)N[C@@H](CC(C)C)C(=O)N[C@H](C(=O)NCC(N)=O)CSCC(=O)N[C@@H](Cc2ccc(O)cc2)C(=O)N(C)[C@@H](C)C(=O)N[C@H]2CCC(=O)NCC[C@H](NC(=O)[C@@H]3CCCN3C2=O)C(=O)N[C@@H](CC(C)C)C(=O)N2CCC[C@H]2C(=O)N[C@@H](Cc2c[nH]c3ccccc23)C(=O)N[C@@H](CO)C(=O)N[C@@H](Cc2c[nH]c3ccccc23)C(=O)N1C [Example 10503] = 6.00 to 7.00
CCCC[C@H]1C(=O)N(C)[C@@H](CCCC)C(=O)N[C@@H](CC(C)C)C(=O)N[C@H](C(=O)NCC(N)=O)CSCC(=O)N[C@@H](Cc2ccc(O)cc2)C(=O)N(C)[C@@H](C)C(=O)N[C@H]2CCC(=O)NC[C@H](NC(=O)[C@@H]3CCCN3C2=O)C(=O)N[C@@H](CC(C)C)C(=O)N2CCC[C@H]2C(=O)N[C@@H](Cc2c[nH]c3ccccc23)C(=O)N[C@@H](CO)C(=O)N[C@@H](Cc2c[nH]c3ccccc23)C(=O)N1C [Example 10500] = 6.00 to 7.00

Need pIC50, item CCCC[C@H]1C(=O)N(C)[C@@H](CCCC)C(=O)N[C@H]2CCCC[C@H](NC(=O)[C@H](Cc3c[nH]c4ccccc34)NC(=O)[C@@H]3CCCN3C(=O)[C@H](CC(C)C)NC(=O)[C@H](Cc3cnc[nH]3)NC(=O)[C@@H]3CCCN3C(=O)[C@H](CC(N)=O)NC(=O)[C@H](C)N(C)C(=O)[C@H](Cc3ccc(O)cc3)NC(=O)CSC[C@@H](C(=O)NCC(N)=O)NC2=O)C(=O)N[C@@H](Cc2c[nH]c3ccccc23)C(=O)N1C [Example 7156]
7.00 to 8.00
